# system_under_test: Cytochrome P450 2C9 (Homo sapiens) (UniProt P11712)
# Sequence (P11712 whole entry, looked up): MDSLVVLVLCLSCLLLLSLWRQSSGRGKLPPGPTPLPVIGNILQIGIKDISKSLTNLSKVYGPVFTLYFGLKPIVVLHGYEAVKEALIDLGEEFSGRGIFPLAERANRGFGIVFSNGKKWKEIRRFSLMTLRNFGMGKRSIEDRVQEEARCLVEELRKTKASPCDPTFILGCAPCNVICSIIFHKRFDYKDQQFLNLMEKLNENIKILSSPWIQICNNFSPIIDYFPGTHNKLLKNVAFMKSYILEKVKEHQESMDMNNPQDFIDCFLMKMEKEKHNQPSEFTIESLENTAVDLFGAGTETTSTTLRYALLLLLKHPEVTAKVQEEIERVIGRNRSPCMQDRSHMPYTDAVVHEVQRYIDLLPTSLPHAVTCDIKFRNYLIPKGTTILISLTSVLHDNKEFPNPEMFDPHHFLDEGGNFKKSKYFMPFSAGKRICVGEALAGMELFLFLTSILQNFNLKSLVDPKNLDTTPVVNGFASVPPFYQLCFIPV
# test_details: Cytochrome panel assay with activity outcomes
# condition_notes: recombinant CYP, pro-luciferin dealkylation, luminescence, p450-cyp2c9; series mostly up to 57.1 µM
The campaign covered roughly 16,000 compounds. About 4,000 (25%) were called active. About 26% were inconclusive and are not listed. Calls come from the whole dose curve; as a rule, active = well fitted curve in the direction sought with a large enough effect; inconclusive = small, poorly fitted or top-dose-only effect, or effect the other way; inactive = no such curve, though single readings can be large or run the other way. Not all results are given here.
Classes to choose from: active, inactive

Solved cases below.
Dear colleague, could you share the recorded outcome for `COCCn1c(=O)c(-c2ccccc2)nc2cnc(Oc3cccc(Cl)c3)nc21` when you have a moment?
active

Returns: the outcome recorded for CC(Oc1ccc(Cl)cc1)c1ccnn1S(=O)(=O)c1ccccc1 (stereo not drawn) in this assay.
active

Look up the recorded call for `CC(C)(C)C(=O)N(CCN(C(=O)C(C)(C)C)c1ccccc1)c1ccccc1` in this test.
active

Given `C[C@@H](CN1c2ccccc2Sc2ccccc21)N(C)C` , state the outcome it received in this test.
inactive

Query: recorded result category for `COc1ncc2ncc(=O)n(CCC#N)c2n1` in this test
inactive

Which result was noted for this compound in the test: `OC[C@@H]1O[C@@H](n2cnc3c(NC4CCCC4)ncnc32)[C@@H](O)[C@H]1O`
inactive

---
Please let me know the test result on file for `N#Cc1ccc(Oc2nc(C(N)=O)cc(-c3ccccc3)n2)cc1` .
active

Hi, sorry to bother you, what did the test record for `Cc1ccc(Cn2nc(C)c(NC(=O)c3cc(-c4ccco4)on3)c2C)cc1` ?
active

What call does the record list for `COC(=O)[C@@H]1CC[C@H](C)[C@@H](c2ccc(C)cc2)N1C(=O)c1ccc(/C=N\OC[C@@H](O)[C@H]2O[C@H]3OC(C)(C)O[C@H]3[C@@H]2O)cc1` ?
active

State the result this test recorded for C=CCOC(=O)C1=C(C)NC(SCC(=O)OCC)=C(C#N)C1c1ccc(C)cc1 (stereo not drawn) .
active

Please let me know the test result on file for `CC(=O)N(CC(=O)O)c1ccccc1C(=O)O` .
inactive

Tell me the assay call for CCc1ccc(N2CC(C(=O)N/N=C/c3cccc([N+](=O)[O-])c3)CC2=O)cc1 (stereo not drawn) please.
active

State the result this test recorded for CCc1ccc(N2CC(C(=O)NC3=NCCS3)CC2=O)cc1 (stereo not drawn) .
active

Recorded call for CC1CCCN(CCCNC(=O)C2CC(=O)N(c3ccc(F)c(Cl)c3)C2)C1 (stereo not drawn) ?
inactive

Please state the recorded outcome for this compound: `O=C(NCCCN1CCCCCC1)[C@@H](c1ccccc1)C1CCCCC1`
inactive

###

# system_under_test: Cytochrome P450 2C9 (Homo sapiens)
# test_details: Cytochrome panel assay with activity outcomes
# condition_notes: recombinant CYP, pro-luciferin dealkylation, luminescence, p450-cyp2c9; series mostly up to 57.1 µM
Screen size: about 16,000 compounds; about 4,000 (25%) were called active. Roughly 26% stayed inconclusive and do not appear here. The list is a sample of the results.
measurement_name: AC50

For the compound `COC(=O)c1scc(C)c1NC(=O)Cc1ccccc1` , what AC50 is on record?
inactive

Recorded AC50 for `c1ccc2cc(C3=NCCN3)ncc2c1` , please?
inactive

Returns the measured AC50 for the input compound. Input: `CC(=O)Nc1ccc(S(=O)(=O)NCCc2ccc(F)cc2)cc1`
inactive

Give the measured AC50 of `CCn1cc(C(=O)O)c(=O)c2cc3c(cc21)OCO3` .
inactive

Suppose we examine the compound `CCOC(=O)/C(C#N)=C1/C=CN(C)C=N1` ; what AC50 value has been reported?
inactive

Provide AC50 for all items below, preserving their order.
1. O=C(Cc1ccc(Br)cc1)Nc1ccccc1Sc1ccccc1
2. COc1ccc(C(O)c2nccn2Cc2ccccc2)cc1 (stereo not given)
3. COC(=O)[C@@]1(Cc2ccccc2)[C@H]2c3cc(C(=O)N4CCCC4)n(CCN4CNCC4=O)c3C[C@H]2CN1C(=O)c1ccccc1
4. COc1ncc2nc(-c3ccc(F)cc3)c(=O)n(Cc3ccc(F)cc3)c2n1
5. O=C(Oc1oc(-c2ccco2)nc1C=Nc1ccc(Cl)cc1)c1ccco1
6. COc1cc(OC)cc(C(=O)NC(=S)NCCc2ccccc2)c1
7. CC(C)CCNC(=O)C12CN(Cc3ccccc3)CC1C(c1cccc([N+](=O)[O-])c1)=NO2 (stereo not given)
8. COc1cc(NC(=S)Nc2ccc(S(=O)(=O)N3CCOCC3)cc2)cc(OC)c1OC

2.82 µM (active)
inactive
2 µM (active)
inactive
inactive
2.82 µM (active)
5.62 µM (active)
15.8 µM (active)

Report AC50 for every entry below.
1. CC(=O)Nc1ccc(S(=O)(=O)NC(CC(=O)NCCCN2CCOCC2)C(C)C)cc1 (stereo not given)
2. COc1ccc(CONS(=O)(=O)c2ccc(NC(C)=O)cc2)cc1Cl

["inactive", "12.6 µM (active)"]

###

# system_under_test: Cytochrome P450 2C9 (Homo sapiens) (UniProt P11712)
# test_details: Cytochrome panel assay with activity outcomes
# condition_notes: recombinant CYP, pro-luciferin dealkylation, luminescence, p450-cyp2c9; series mostly up to 57.1 µM
In all, about 16,000 compounds went through this assay and about 4,000 (25%) were called active. Not shown: some 26% with an inconclusive outcome. Calls come from the whole dose curve; as a rule, active = well fitted curve in the direction sought with a large enough effect; inconclusive = small, poorly fitted or top-dose-only effect, or effect the other way; inactive = no such curve, though single readings can be large or run the other way. Only a sample is shown.
Assign a class; possible classes are y (active), n (inactive)

# count of solved cases: 5
What classification did `OCCN1CCN(C(=S)c2ccc(Br)cc2)CC1` end up with in this test?
n

What did the test return for `Cc1cc([N+](=O)[O-])nn1CC(=O)NNC(=S)Nc1ccc(F)cc1` ?
n

Hello, I am checking results. What call was entered for `CCCCS(=O)(=O)NC1=NCN(Cc2ccco2)CN1` ?
n

Which outcome was assigned to CC1(C)OC(=O)N(Cc2ccco2)C1(C)O (stereo not given) in this test?
n

Any idea what this test logged for `COC(=O)CNC(=O)/C=C/c1ccc(OC)cc1` ?
n

Please turn your attention to the following entry.
Recorded test outcome, item `COc1ccc(/C=C/C(=O)Nc2ccccc2C(=O)N2CCCC2)cc1`
y

###

# system_under_test: Cytochrome P450 2C9 (Homo sapiens)
# test_details: Cytochrome panel assay with activity outcomes
# condition_notes: recombinant CYP, pro-luciferin dealkylation, luminescence, p450-cyp2c9; series mostly up to 57.1 µM
The campaign covered roughly 16,000 compounds. About 4,000 (25%) were called active. Not shown: some 26% with an inconclusive outcome. Calls come from the whole dose curve; as a rule, active = well fitted curve in the direction sought with a large enough effect; inconclusive = small, poorly fitted or top-dose-only effect, or effect the other way; inactive = no such curve, though single readings can be large or run the other way. Not all results are given here.
Classes to choose from: active, inactive

Which result was noted for this molecule in the test: `COC(=O)[C@@]1(Cc2ccc(F)cc2)[C@H]2c3cc(C(=O)N4CCCC4)n(CCCNc4ncc(C(F)(F)F)cc4Cl)c3C[C@H]2CN1C(=O)c1ccccc1`
active

***
I would be grateful if you could indicate the recorded call for `Cc1cccn2c(=O)c(C=NCc3ccco3)c(Nc3ccc(SC(F)F)cc3)nc12` .
inactive

Could you please tell me the result logged for `COCCN(C(=O)Nc1ccc(OC)cc1OC)C1CCN(C(C)=O)CC1` in this assay?
inactive

Test call, this molecule: `COc1ccc(-c2ccc(=N)n(CCCC(=O)O)n2)cc1`
active

###

# system_under_test: Cytochrome P450 2C9 (Homo sapiens) (UniProt P11712)
# test_details: Cytochrome panel assay with activity outcomes
# condition_notes: recombinant CYP, pro-luciferin dealkylation, luminescence, p450-cyp2c9; series mostly up to 57.1 µM
Among all 16,000 compounds or so, about 4,000 (25%) were called active. Roughly 26% stayed inconclusive and do not appear here. The call rests on the fitted dose curve; in most records, active means well fitted curve in the direction sought with a large enough effect; inconclusive means small, poorly fitted or top-dose-only effect, or effect the other way; inactive means no such curve, though single readings can be large or run the other way. The list is a sample of the results.
In this exercise, the only acceptable responses are Yes = active, No = inactive

Study these solved cases before continuing.
What outcome does the record of this test show for `c1ccc(-c2ccc(C3=Nn4c(Cn5nnc6ccccc65)nnc4SC3)cc2)cc1` ?
Yes

Returns: the outcome recorded for CCC(Sc1ncccc1C(=O)O)C(=O)N1CCOCC1 (stereo not drawn) in this assay.
No

In this assay, the call recorded for `C/C(CC(=O)Nc1cc(C)ccn1)=N\NC(=O)COc1cccc(C)c1` was what?
No

# outcome recorded in this test, key = `CCN(c1nc(N)c(C(=O)N=C(N)N)nc1Cl)C(C)C`
No

New cases:
// param item: `N#CCCn1c(=O)cnc2cnc(N3CCOCC3)nc21` ; yields the recorded call
No

What call does the record list for `CCN(CC)CCOC(=O)[C@@H](c1ccccc1)C1CCCCC1` ?
No

What classification did `CCN1C(=O)/C(=C2\SC(=S)N(CCCOC)C2=O)c2ccccc21` end up with in this test?
Yes

State the result this test recorded for `CC(C)C(=O)NCCn1ccc2ccccc21` .
No

How was `O=c1c(-c2ccccc2)nc2cnc(N3CCOCC3)nc2n1CCc1ccccc1` classified in this test?
Yes

Please state the recorded outcome for this molecule: `CCCn1nc2cc(C(=O)NCc3ccccc3OC)ccc2c1OCC`
No

Recorded test call requested for `COC(=O)[C@@H]1C[C@H]1[C@@H](NC(=O)c1cccnc1)c1ccccc1`
No

Dear all, I need the recorded test outcome for Cc1cccc(NC(NC(=O)c2cccnc2)C(Cl)(Cl)Cl)c1 (stereo not drawn) , thank you.
Yes

In this assay, the call recorded for `CC(=O)NC1(c2cccc(F)c2)CCN(CC(=O)NC(C)C)CC1` was what?
No

In this assay, the call recorded for `O=S(=O)(c1ccccc1)N1CCC2(CC1)CN(Cc1ccccc1)C2` was what?
No

Attribution: PubChem BioAssay AID1851
